assay: chemical genetic growth profiling, strain panel (AID 1159580);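 note: tested at 20 µM; growth read once vehicle control cultures reached saturation at 30 °C; 1 = growth at the plate median or of vehicle wells; lower values mean less growth of the strain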; settings: S. cerevisiae deletion strains, growth OD, locus YIR030C, strain dcg1, hits give low values
About 2,000 (36%) of roughly 5,500 compounds were called active. Not shown: some 18% with an inconclusive outcome. This is one part of the list.
In this section we review reported normalized growth values for a set of compounds.
Answer using only a numeral; do not append any unit.

Sample answers from the record:
# compound, normalized growth
measured = [
    ("S=c1nc[nH]c2nc[nH]c12", 0.974),
    ("CC1/C(=N\\O)C[C@@H]2C[C@H]1C2(C)C (stereo partly specified)", 1.02),
    ("C[C@H]1CC2C([C@@H](O)C[C@@]3(C)C2CC[C@]3(O)C(=O)CO)[C@@]2(C)C=CC(=O)C=C12 (stereo partly specified)", 1.02),
    ("COP(=O)(OC)OC=C(Cl)Cl", 0.988),
]

Specify normalized growth for `COc1cc(O)c(C(=O)/C=C/c2ccccc2)c(OC)c1` and stop.
0.898

Specify normalized growth for `COc1cc2c(cc1OC)C(=O)OC2` and stop.
0.999

* * *

assay: chemical genetic growth profiling, strain panel (AID 1159580); conditions: S. cerevisiae deletion strains, growth OD, locus YPR167C, strain met16, hits give low values
About 2,000 (36%) of roughly 5,500 compounds were called active. About 18% were inconclusive and are not listed. Some of the results follow.
Cut-off 1 on normalized growth: below means yes (1), at or above means no (0).

# compound, category label
data = [
    ("CC(=O)OCC(=O)[C@@]1(O)CCC2C3CCC4=CC(=O)CC[C@]4(C)C3C(=O)C[C@@]21C (stereo partly drawn)", "no (0)"),
]

Note: attention shifts to another entry.
Please let me know if CC(=O)[C@H]1CCC2C3CCC4=CC(=O)CC[C@]4(C)C3CC[C@@]21C (stereo partly drawn) shows normalized growth below 1.
yes (1)

* * *

experiment: chemical genetic growth profiling, strain panel (AID 1159580); conditions: S. cerevisiae deletion strains, growth OD, locus YJL154C, strain vps35
Screen size: about 5,500 compounds; about 2,000 (36%) were called active. Not shown: some 18% with an inconclusive outcome. Rule as the data show it: active = normalized growth mostly below about 0.91 (no sharp cut-off); inconclusive = no clear call, values can overlap the other calls; inactive = mostly above about 0.92. The list shows a part of the results.
Select the correct class. Options are active, inactive and nothing else.

Use these answered entries as a reference point.
# compound, category label
data = [
    ("C[C@H]1CC2C([C@@H](O)C[C@@]3(C)C2CC[C@]3(O)C(=O)CO)[C@@]2(C)C=CC(=O)C=C12 (stereo partly specified)", "inactive"),
    ("Oc1cc(Cl)ccc1Oc1ccc(Cl)cc1Cl", "active"),
    ("CN1CCC(=C2c3ccccc3Sc3ccccc32)CC1", "inactive"),
    ("COc1cc(O)c(C(=O)/C=C/c2ccc(O)c(OC)c2)c(OC)c1", "inactive"),
    ("O=C(O)c1cc2ccccc2c(Cc2c(O)c(C(=O)O)cc3ccccc23)c1O", "inactive"),
]

What outcome does the record of this test show for `CN1CCC(=C2c3ccccc3CC(=O)c3sccc32)CC1` ?
inactive

What outcome does the record of this test show for `O=C(O)c1c2ccccc2cc2ccccc12` ?
inactive

What outcome does the record of this test show for N=c1ccn2c(n1)O[C@@H]1C2O[C@H](CO)[C@H]1O (stereo partly specified) ?
inactive

What outcome does the record of this test show for `COc1cc(O)c(C(=O)/C=C/c2ccc(OC)c(O)c2)c(OC)c1` ?
inactive

What outcome does the record of this test show for CC(N)C(=O)OC(C)(C)Cc1ccc(Cl)cc1 (stereo unspecified) ?
inactive

What outcome does the record of this test show for `CN1CCC(=C2c3ccccc3CCc3sccc32)CC1` ?
inactive

* * *

experiment: chemical genetic growth profiling, strain panel (AID 1159580);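 note: tested at 20 µM; growth read once vehicle control cultures reached saturation at 30 °C; 1 = growth at the plate median or of vehicle wells; lower values mean less growth of the strain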; details: S. cerevisiae deletion strains, growth OD, locus YDL035C, strain GPR1, hits give low values
The whole screen tested about 5,500 compounds, of which about 2,000 (36%) were called active. Roughly 18% stayed inconclusive and do not appear here. The list shows a part of the results.
In this section we review reported normalized growth values for a set of compounds.
Answer using only a numeral; do not append any unit.

Sample answers from the record:
# compound, normalized growth
data = [
    ("CCCCCCCCCCCCCCCC(=O)OC/C=C(C)/C=C/C=C(C)/C=C/C1=C(C)CCCC1(C)C", 0.978),
    ("c1cncc(C2CCCCN2)c1 (stereo unspecified)", 1.04),
    ("COc1cc2c(cc1OC)[C@@H]1C(=O)c3ccc4oc(C(C)C)cc4c3O[C@@H]1CO2", 1.02),
    ("COc1cc2c(cc1OC)[C@@H]1C(=O)c3ccc4c(c3O[C@@H]1CO2)C=CC(C)(C)O4", 0.976),
    ("COc1cc2c(cc1OC)[C@@H]1C(=O)c3ccc(O)c(CC=C(C)C)c3O[C@@H]1CO2", 1.02),
    ("C[C@]12CC(=O)C3C(CC[C@@H]4C[C@H](O)CC[C@]34C)C1CC[C@]2(O)C(=O)CO (stereo partly specified)", 0.996),
    ("CCN(CC)CCCC(C)Nc1c2ccc(Cl)cc2nc2ccc(OC)cc12 (stereo unspecified)", 0.627),
    ("CO[C@H]1[C@H](O)[C@H](O[C@H]2CC[C@]3(C)C4CC[C@]5(C)C(C6=CC(=O)OC6)CC[C@]5(O)C4CC[C@@H]3C2)O[C@@H](C)[C@@H]1O (stereo partly specified)", 1.02),
]

Specify normalized growth for `CC[C@H]1OC(=O)[C@H](C)[C@@H](O[C@H]2C[C@@](C)(OC)[C@@H](O)[C@H](C)O2)[C@H](C)[C@@H](O[C@@H]2O[C@H](C)C[C@H](N(C)C)[C@H]2O)[C@](C)(O)C[C@@H](C)CN(C)[C@H](C)[C@@H](O)[C@]1(C)O` and stop.
0.969

Specify normalized growth for CC1=C(/C=C/C(C)=C/C=C/C(C)=C/C=C/C=C(C)/C=C/C=C(C)/C=C/C23OC2(C)CC(O)CC3(C)C)C(C)(C)CC(O)C1 (stereo unspecified) and stop.
1.01

Specify normalized growth for C=C1C([C@]2(C)C(CC(=O)OC)[C@@](C)(COC(C)=O)OC(=O)C[C@@H]2OC(C)=O)[C@@H](OC=O)[C@H](OC(=O)C(O)C(C)CC)[C@@]2(C)[C@H](c3ccoc3)CC(=O)C12O (stereo partly specified) and stop.
1.01

* * *

experiment: chemical genetic growth profiling, strain panel (AID 1159580);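 note: tested at 20 µM; growth read once vehicle control cultures reached saturation at 30 °C; 1 = growth at the plate median or of vehicle wells; lower values mean less growth of the strain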; settings: S. cerevisiae deletion strains, growth OD, locus YML032C, strain rad52, hits give low values
Out of some 5,500 compounds screened, about 2,000 (36%) were called active. Another 18% or so got no clear call; they are omitted. Some of the results follow.
Cut-off 1 on normalized growth: below means Satisfied, at or above means Not satisfied.

Use these answered entries as a reference point.
# molecule, category label
records = [
    ("C=C1C([C@]2(C)C(CC(=O)OC)[C@@](C)(COC(C)=O)OC(=O)C[C@@H]2OC(C)=O)[C@@H](OC=O)[C@H](OC(=O)C(OC(C)=O)C(C)CC)[C@@]2(C)[C@H](c3ccoc3)CC(=O)C12O (stereo partly drawn)", "Not satisfied"),
    ("CC1CC2C3CC(F)C4=CC(=O)C=CC4(C)C3(F)C(O)CC2(C)C1(O)C(=O)CO (stereo not drawn)", "Not satisfied"),
]

Please let me know if `CS(=O)(=O)c1ccc(C2=C(c3ccccc3)C(=O)OC2)cc1` shows normalized growth below 1.
Satisfied

* * *

assay: chemical genetic growth profiling, strain panel (AID 1159580);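 note: tested at 20 µM; growth read once vehicle control cultures reached saturation at 30 °C; 1 = growth at the plate median or of vehicle wells; lower values mean less growth of the strain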; conditions: S. cerevisiae deletion strains, growth OD, locus YNL307C, strain MCK1
Among all 5,500 compounds or so, about 2,000 (36%) were called active. Inconclusive results (about 18%) are left out. Cut-off read from the data, not from the text of the source: active = normalized growth mostly below about 0.91 (no sharp cut-off); inconclusive = no clear call, values can overlap the other calls; inactive = mostly above about 0.92. This is one part of the list.
Select the correct class. Options are label 1 (active), label 0 (inactive) and nothing else.

# molecule, category label
data = [
    ("COc1cc2c(cc1OC)[C@@H]1C(=O)c3ccc4oc(C(C)C)cc4c3O[C@@H]1CO2", "label 0"),
]

What outcome does the record of this test show for CC(=O)NC1SCCC1=O (configuration not stated) ?
label 0

What outcome does the record of this test show for `CN(C)CC/C=C1\c2ccccc2Sc2ccc(Cl)cc21` ?
label 0

What outcome does the record of this test show for COc1cc2c(cc1OC)C1C(=O)c3c(cc4c(c3O)C=CC(C)(C)O4)OC1CO2 (configuration not stated) ?
label 0

What outcome does the record of this test show for `C[C@@H]1[C@H]2[C@H](O[C@@H]3O[C@H](CO)[C@@H](O)[C@H](O)[C@H]3O)OC=C(C(=O)O)[C@H]2C[C@@H]1O` ?
label 0

What outcome does the record of this test show for C[C@]12CC(=O)C3C(CC[C@@H]4C[C@H](O)CC[C@]34C)C1CC[C@]2(O)C(=O)CO (some centres not stated) ?
label 0

What outcome does the record of this test show for `COc1cc2c(cc1OC)[C@@H]1C(=O)c3ccc(OC)c(CC=C(C)C)c3O[C@@H]1CO2` ?
label 0
